Numbers sourced from patent US8029764B2.

Test system: colorectal tissue transcripts
Experiment: SAGE of normal, adenoma and cancer colorectal tissue (transcript tag counts)
Design: species or system human
Test parameters: SAGE library NC1
Parameter: NC1 (SAGE tag count)

Quote NC1 (SAGE tag count) reported for AACGTGCAGG (chemistry not fully specified) please.
29

Give the measured NC1 (SAGE tag count) for CCCCCGAAGC (chemistry not fully specified)
25

# return recorded NC1 (SAGE tag count) for entry GCCACGTGGA (chemistry not fully specified)
19

Tell me measured NC1 (SAGE tag count) for ACTCTTGTTG (chemistry not fully specified) please.
7

Look up and state reported NC1 (SAGE tag count) for CCAAAGCTAT (chemistry not fully specified)
42

Determine its reported NC1 (SAGE tag count): CAAATAAAAG (chemistry not fully specified)
9

Read off the recorded NC1 (SAGE tag count) for GATCCCAACT (chemistry not fully specified)
9

Input ACACCCATCA (chemistry not fully specified) , output reported NC1 (SAGE tag count).
2

Consider the sequence GTGCACTGAG (chemistry not fully specified) and give its recorded NC1 (SAGE tag count).
118

# return recorded NC1 (SAGE tag count) for input AGCCCGACCA (chemistry not fully specified)
16

Specify measured NC1 (SAGE tag count) for GCTGTGCCTG (chemistry not fully specified) .
36

Identify measured NC1 (SAGE tag count) associated with ATGGTCTACG (chemistry not fully specified)
10

Give the reported NC1 (SAGE tag count) for this sequence. ACCCAACTGC (chemistry not fully specified)
12

Write down NC1 (SAGE tag count) measured for item GGAGGCCGAG (chemistry not fully specified)
13

Give the measured NC1 (SAGE tag count) for GCAGCTCCTG (chemistry not fully specified)
13

Dear colleague, please send me the reported NC1 (SAGE tag count) for CCATTCCACT (chemistry not fully specified) when you can.
13

For the sequence ATTTCAAGAT (chemistry not fully specified) , give its reported NC1 (SAGE tag count).
35

Please give the documented NC1 (SAGE tag count) of CTAGCCTCAC (chemistry not fully specified)
172

Determine from records and report NC1 (SAGE tag count) for CTTCTTGCCC (chemistry not fully specified)
29

Report NC1 (SAGE tag count), nothing else, for this sequence: CAAGAGTTTC (chemistry not fully specified)
14

Tell me measured NC1 (SAGE tag count) for ACCTGGGGAG (chemistry not fully specified) please.
35

Answer with the recorded NC1 (SAGE tag count) for the sequence listed here: GACCAGCCCA (chemistry not fully specified)
23

Recall and state the measured NC1 (SAGE tag count) for GACATCAAGT (chemistry not fully specified) .
198
